Reference for the values: patent US20260274955A1

- measurement target: T1, Anti-CD28 Fab (SEQ ID NOs: 202, 203)
- T1 construct: biotinylated and captured on neutravidin coated plates in the phage ELISA
- T1 sequence (VH, as listed by the source, chain 1 of 2): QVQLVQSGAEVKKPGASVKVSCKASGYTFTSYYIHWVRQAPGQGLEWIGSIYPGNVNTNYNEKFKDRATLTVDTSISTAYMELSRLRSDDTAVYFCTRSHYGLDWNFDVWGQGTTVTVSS
- T1 sequence (VL, as listed by the source, chain 2 of 2): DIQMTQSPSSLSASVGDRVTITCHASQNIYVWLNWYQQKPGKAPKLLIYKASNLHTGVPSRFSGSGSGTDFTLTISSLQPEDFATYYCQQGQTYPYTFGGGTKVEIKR
- assay protocol: phage ELISA, Fab on plate, CD28 antigen as competitor
metric name: Anti-CD28 Fab signal in the presence of CD28

binder="YCEGHHRIYMQKCL [Phage-681]" assay_result=0.07
binder="YCDGHRPEYMSKCL [Phage-706]" assay_result=0.07
binder="YCVGHLPEYMLECM [Phage-739]" assay_result=0.07
binder="YCEGHSLEYMMKCV [Phage-664]" assay_result=0.07
binder="YCVGHYPEYMEKCL [Phage-697]" assay_result=0.07
binder="YCEGHLDEYLQKCL [Phage-626]" assay_result=0.07
binder="YCDGHVEEYMTKCL [Phage-691]" assay_result=0.07
